experiment: In vivo pharmacokinetic and oral bioavailability in mouse; set-up: species or system male Swiss mice; conditions: male, Swiss, plasma, po, p.o. 10 mg/kg vs i.v. 2.5 mg/kg
bioavailability listing for selected compounds.
Kindly answer with a numeric value in %, unit omitted.

O=C1CNCc2cc(/C=C/C(=O)N3CC4C=C(c5ccccc5)CC4C3)cnc2N1 (centres unmarked)    36

// next item, bioavailability requested
Check the records and state bioavailability for O=C1CNCc2cc(/C=C/C(=O)N3CC4C=C(c5nccs5)CC4C3)cnc2N1 (centres unmarked)
32

###

test: Cytotoxicity MTT assay (HELAM); format: cell-based, Human; conditions: human, HelaM cells, read-out: HELAM (222.125) CC50
ATTRIBUTE MEASURED: CC50 at 72 h

Check the records and state CC50 at 72 h for Cc1cc(C(=O)Nc2ccc(/C=C/C(=O)N3CC4C=C(c5ccccc5)CC4C3)cn2)c(C)o1 (stereo not drawn) [compound 19]
10.8 µg/mL

Check the records and state CC50 at 72 h for Cn1nccc1C1=CC2CN(C(=O)/C=C/c3cnc4c(c3)COCC(=O)N4)CC2C1 (stereo not drawn) [compound 56]
> 10.2 µg/mL

###

tested on: Staphylococcus aureus ATCC 29213; assay: Antibacterial susceptibility testing, IC90 determination (STA); assay type: cell-based; conditions: Staphylococcus aureus, ATCC29213, Staphylococcus aureus ATCC 29213, broth microdilution, resazurin; read-out: STA (361.159) IC90
IC90 listing for selected compounds.
Kindly answer with a numeric value in µg/mL, unit omitted.

Cc1occc1C(=O)Nc1ccc(/C=C/C(=O)N2CC3C=C(c4ccccc4)CC3C2)cn1 (stereo not shown)    0.47

Check the records and state IC90 for Cc1cncc(C(=O)Nc2ccc(/C=C/C(=O)N3CC4C=C(c5ccncc5)CC4C3)cn2)c1 (stereo not shown)
0.316

###

assay: In vivo pharmacokinetic and oral bioavailability in mouse; design: species or system male Swiss mice; conditions: male, Swiss, plasma, po, 5 mg/kg, 20% HP-β-cyclodextrin
ATTRIBUTE MEASURED: Cmax (ng/mL)
Kindly answer with a numeric value in ng/mL, unit omitted.

Check the records and state Cmax for O=C1COc2cc(/C=C/C(=O)N3CC4C=C(c5ccccc5)CC4C3)cnc2N1 (stereo not shown)
2330

###

experiment: In vivo pharmacokinetic and oral bioavailability in mouse; set-up: species or system male Swiss mice; settings: male, Swiss, plasma, po, 5 mg/kg, 20% HP-β-cyclodextrin
ATTRIBUTE MEASURED: Tmax (h)
Kindly answer with a numeric value in h, unit omitted.

Check the records and state Tmax for O=C1COc2cc(/C=C/C(=O)N3CC4C=C(c5ccccc5)CC4C3)cnc2N1 (stereo not shown)
1

###

IC90 listing for selected compounds.
Tested on: S. aureus
Assay: Antibacterial susceptibility testing, IC90 determination with 10% human serum (STA + 10% HS)
Type: cell-based, Staphylococcus aureus
Settings: Staphylococcus aureus, human serum at final concentration of 10%, read-out: STA + 10% HS (361.169) IC90
Method: The following bacteria were used: Staphylococcus aureus ATCC 29213, methicillin-resistant Staphylococcus aureus (MRSA) ATCC 700788 and Escherichia coli ATCC 35218. The bacteria used in this study were grown overnight in flasks containing 100 ml Mueller-Hinton broth (Difco cat. nr. 0757-17) in sterile de-ionized water, with shaking, at 37° C. Stocks were store at −70° C. until use. […]

O=C1CNCc2cc(/C=C/C(=O)N3CC4C=C(c5nccs5)CC4C3)cnc2N1 (centres unmarked)    0.21 µg/mL

Check the records and state IC90 for Cc1occc1C(=O)Nc1ccc(/C=C/C(=O)N2CC3C=C(c4ccccc4)CC3C2)cn1 (centres unmarked)
3.33 µg/mL

Check the records and state IC90 for Cc1cncc(C(=O)Nc2ccc(/C=C/C(=O)N3CC4C=C(c5ccsc5)CC4C3)cn2)c1 (centres unmarked)
0.36 µg/mL

Check the records and state IC90 for Cc1cncc(C(=O)Nc2ccc(/C=C/C(=O)N3CC4C=C(c5ccnn5C)CC4C3)cn2)c1 (centres unmarked)
1.63 µg/mL

Check the records and state IC90 for Cc1cc(N)ncc1/C=C/C(=O)N1CC2C=C(c3ccccc3)CC2C1 (centres unmarked)
> 21.8 µg/mL
